System: MCF7
Test: Cytostatic activity against human MCF7 cells after 48 hrs by MTT assay
Type: functional, cell-based
Details: MCF7, 48 h
Property Measured: IC50 (µM)
Output spec: scalar in µM, unitless text.

// known answers, use as guide
Nc1nc(Cl)nc2c1ncn2[C@@H]1O[C@H](CO)[C@@H](O)[C@@H]1F | 50
CCCCCCCCCCCCCC(=O)OC[C@@H](COP(=O)(O)OC[C@H]1O[C@@H](n2cnc3c(N)nc(Cl)nc32)[C@@H](F)[C@@H]1O)OC(=O)CCCCCCCCCCCCC | 40
CCCCCCCCCCCCCCCC(=O)OCC(COC(=O)CCCCCCCCCCCCCCC)OP(=O)(O)OC[C@H]1O[C@@H](n2cnc3c(N)nc(Cl)nc32)[C@@H](F)[C@@H]1O | 30

IC50 for `CCCCCCCCCCCCCC(=O)OCC(COC(=O)CCCCCCCCCCCCC)OP(=O)(O)OC[C@H]1O[C@@H](n2cnc3c(N)nc(Cl)nc32)[C@@H](F)[C@@H]1O` ?
40
